All values here come from patent US20220177587A1.

biological target: CD28 (human) (UniProt P10747); assay: flow cytometry, Jurkat cells (CD28)
measured_quantity: Fold change to WT CD80 (fold)
Quick note: give the figure in fold, leave out the unit.

Completed entries (count: 5):
variant CD80 IgV-Fc A26E/E35D/V68M/D90G (Fc fusion) VIHVTKEVKEVATLSCGHNVSVEELEQTRIYWQKDKKMVLTMMSGDMNIWPEYKNRTIFDITNNLSIMILALRPSDEGTYECVVLKYEKGAFKREHLAEVTLSVKAD
38.3
variant CD80 IgV-Fc H18Y/A26E/V68M/A71G (Fc fusion) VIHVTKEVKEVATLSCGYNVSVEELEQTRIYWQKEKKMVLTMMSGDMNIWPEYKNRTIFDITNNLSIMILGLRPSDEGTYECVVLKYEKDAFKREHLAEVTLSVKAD
2.3
variant CD80 IgV-Fc H18Y/A26E/M47L/A71G (Fc fusion) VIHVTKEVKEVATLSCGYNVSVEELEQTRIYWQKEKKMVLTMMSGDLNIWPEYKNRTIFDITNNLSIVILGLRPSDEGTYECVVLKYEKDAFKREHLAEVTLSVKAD
13.9
CD80 E35D/M47V/N48K/V68M/L85M IgV-Fc (Fc fusion) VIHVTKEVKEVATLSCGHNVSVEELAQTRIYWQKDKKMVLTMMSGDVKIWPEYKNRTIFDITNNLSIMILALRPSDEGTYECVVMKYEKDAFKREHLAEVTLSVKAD
7.8
CD80 H18Y/E35D/M47V/V68M/L85M IgV-Fc (Fc fusion) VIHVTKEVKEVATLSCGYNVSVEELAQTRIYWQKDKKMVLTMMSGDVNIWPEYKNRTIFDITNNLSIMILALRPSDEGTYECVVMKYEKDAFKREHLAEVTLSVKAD
11.9

query: Request the reported Fold change to WT CD80 associated with CD80 E35D/T41S/D46E/M47I/V68M/K93R/E95V IgV-Fc (Fc fusion) VIHVTKEVKEVATLSCGHNVSVEELAQTRIYWQKDKKMVLSMMSGEINIWPEYKNRTIFDITNNLSIMILALRPSDEGTYECVVLKYEKDAFRRVHLAEVTLSVKAD
result: 15.2

query: Request the reported Fold change to WT CD80 associated with CD80 H18Y/E35D/V68M/T79M/L85M IgV-Fc (Fc fusion) VIHVTKEVKEVATLSCGYNVSVEELAQTRIYWQKDKKMVLTMMSGDMNIWPEYKNRTIFDITNNLSIMILALRPSDEGMYECVVMKYEKDAFKREHLAEVTLSVKAD
result: 33.2

query: Request the reported Fold change to WT CD80 associated with variant CD80 IgV-Fc A26E/V68M/A71G/D90G (Fc fusion) VIHVTKEVKEVATLSCGHNVSVEELEQTRIYWQKEKKMVLTMMSGDMNIWPEYKNRTIFDITNNLSIMILGLRPSDEGTYECVVLKYEKGAFKREHLAEVTLSVKAD
result: 27.2

query: Request the reported Fold change to WT CD80 associated with CD80 E35D/M47L/Y53F/V68M/A71G/K93R/E95V IgV-Fc (Fc fusion) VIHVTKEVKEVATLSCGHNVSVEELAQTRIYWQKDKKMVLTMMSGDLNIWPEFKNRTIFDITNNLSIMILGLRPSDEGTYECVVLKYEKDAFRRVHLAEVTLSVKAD
result: 12.2
